Attribution: ChEMBL document CHEMBL5331100

testTarget: Telomerase reverse transcriptase (Homo sapiens, UniProt O14746)
Sequence (O14746 whole entry): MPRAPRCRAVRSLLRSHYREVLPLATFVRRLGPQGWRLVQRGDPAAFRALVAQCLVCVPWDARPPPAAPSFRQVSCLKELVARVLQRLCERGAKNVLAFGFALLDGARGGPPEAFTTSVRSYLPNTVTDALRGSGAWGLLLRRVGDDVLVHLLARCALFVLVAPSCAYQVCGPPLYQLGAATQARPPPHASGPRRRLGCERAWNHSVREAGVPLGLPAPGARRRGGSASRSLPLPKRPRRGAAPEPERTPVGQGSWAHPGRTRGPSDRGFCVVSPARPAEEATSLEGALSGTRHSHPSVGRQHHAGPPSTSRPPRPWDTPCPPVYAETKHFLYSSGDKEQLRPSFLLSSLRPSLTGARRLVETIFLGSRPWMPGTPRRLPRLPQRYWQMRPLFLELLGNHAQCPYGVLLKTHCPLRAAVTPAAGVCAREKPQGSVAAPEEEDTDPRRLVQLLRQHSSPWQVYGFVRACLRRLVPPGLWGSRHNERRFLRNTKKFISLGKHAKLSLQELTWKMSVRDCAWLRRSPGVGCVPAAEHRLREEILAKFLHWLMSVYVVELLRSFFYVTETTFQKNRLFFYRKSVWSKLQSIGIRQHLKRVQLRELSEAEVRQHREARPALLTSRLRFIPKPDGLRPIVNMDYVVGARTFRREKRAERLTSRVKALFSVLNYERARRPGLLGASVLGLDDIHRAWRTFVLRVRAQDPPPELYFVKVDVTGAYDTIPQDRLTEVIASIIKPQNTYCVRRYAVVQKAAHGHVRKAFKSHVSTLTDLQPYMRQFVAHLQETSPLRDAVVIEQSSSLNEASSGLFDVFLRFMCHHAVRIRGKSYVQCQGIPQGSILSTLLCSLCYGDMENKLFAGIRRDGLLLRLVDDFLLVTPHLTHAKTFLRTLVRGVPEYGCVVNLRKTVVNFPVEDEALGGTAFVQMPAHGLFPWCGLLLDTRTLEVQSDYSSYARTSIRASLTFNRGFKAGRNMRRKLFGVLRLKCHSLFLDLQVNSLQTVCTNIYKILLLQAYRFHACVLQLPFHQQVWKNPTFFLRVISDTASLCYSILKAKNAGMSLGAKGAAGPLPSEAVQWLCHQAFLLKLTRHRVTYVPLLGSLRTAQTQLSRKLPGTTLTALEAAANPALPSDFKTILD
methodDescription: Inhibition of telomerase activity in human HCC15 cells by droplet-digital TRAP PCR assay
Type: cell-based
settings: pooled result: one value given for 10 cell lines, strains, targets or settings

| compound | testTarget | IC50 (nM) |
| --- | --- | --- |
| CCCCCCCCCCCCCCCCCCOP(=O)([O-])OC1CC[N+](C)(C)CC1 [PERIFOSINE] | Telomerase reverse transcriptase (Homo sapiens, UniProt O14746) | 184 |

====

testTarget: Telomerase reverse transcriptase (Homo sapiens, UniProt O14746)
methodDescription: Inhibition of telomerase activity in human HeLa cells incubated for 24 hrs by TRAP-PCR assay
Type: cell-based

| molecule | IC50 / µM |
| --- | --- |
| CC(=O)OC1=C(c2ccc(O)cc2)Oc2cc(OCc3cn([C@@H]4OC[C@H](OC=O)[C@H](OC(C)=O)[C@H]4OC(C)=O)nn3)cc(OC(C)=O)c2C1OC(C)=O (stereo partly specified) | 50 |
